# Test Target: human σ1 receptor (Homo sapiens)
# Sequence (Q99720 whole entry): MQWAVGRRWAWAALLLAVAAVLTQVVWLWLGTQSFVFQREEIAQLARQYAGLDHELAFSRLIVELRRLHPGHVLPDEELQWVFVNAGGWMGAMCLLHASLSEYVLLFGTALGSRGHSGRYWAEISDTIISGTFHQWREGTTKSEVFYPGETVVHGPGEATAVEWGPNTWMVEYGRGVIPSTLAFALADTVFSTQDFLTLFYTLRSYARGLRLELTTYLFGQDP
Experimental Endpoint: Ki

Some solved cases for reference:
Molecule: Cc1cc(-c2nn(C)c(Cl)c2CN2CCC(CN(CC(C)C)CC(C)C)C2)no1 (stereo not drawn)
Ki: > 1 µM

Molecule: Cc1cc(-c2nn(C)c(Cl)c2C(=O)N2CC[C@]3(C2)C[C@@H](NCCC(C)(C)C)C3)no1
Ki: > 1 µM

Molecule: CCCCNC1CCCCN(Cc2c(-c3cc(C)on3)nn(C)c2Cl)C1 (stereo not drawn)
Ki: > 1 µM

So what's the measured Ki for this one? Cc1cc(-c2nn(C)c(Cl)c2CN2CCCCC(NCCc3ccccc3)C2)no1 (stereo not drawn) 0.5 to 1 µM

###

# Test Target: human σ2/TMEM97 receptor (Homo sapiens, UniProt Q5BJF2)
# Sequence (Q5BJF2 whole entry): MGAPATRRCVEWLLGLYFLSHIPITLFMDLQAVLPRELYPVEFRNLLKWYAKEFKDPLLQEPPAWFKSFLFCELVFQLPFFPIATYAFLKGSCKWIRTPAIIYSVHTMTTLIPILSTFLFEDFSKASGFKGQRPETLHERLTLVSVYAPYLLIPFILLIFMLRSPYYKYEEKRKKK
# Test Details: Binding assay to human σ2/TMEM97 receptor ([3H]-DTG, transfected HEK-293 membranes)
# Conditions Used: class scale, read-out: Binding σ-2 Ki
pKi: −log10 of the molar value.
Experimental Endpoint: pKi

Compound: CC(C)CCNC1CCCCN(Cc2c(-c3cc(C4CC4)on3)nn(C)c2Cl)C1 (stereo not drawn)
Result: < 6.00
//
Compound: Cc1cc(-c2nn(C)c(Cl)c2CN2CC[C@@]3(CCN(CCC(C)(C)C)C3)C2)no1
Result: > 7.00
//
Compound: Cc1cc(-c2nn(C)c(Cl)c2CN2CCC[C@H](NCCC(C)C)C2)no1
Result: < 6.00
//
Compound: CCn1nc(-c2cc(C)on2)c(CN2CCCCC(NCCC(C)C)C2)c1Cl (stereo not drawn)
Result: < 6.00
//
Compound: Cc1cc(-c2nn(C)c(Cl)c2C(=O)N2CCC3(CCN(Cc4ccc(C#N)c(F)c4)CC3)CC2)no1
Result: 6.00 to 6.30

// pKi lookup, key: CCc1cc(-c2nn(C)c(Cl)c2CN2CCCCC(NCCC(C)C)C2)no1 (stereo not drawn) 6.30 to 7.00

###

# Test Target: human σ2/TMEM97 receptor (Homo sapiens)
# Test Details: Binding assay to human σ2/TMEM97 receptor ([3H]-DTG, transfected HEK-293 membranes)
# Conditions Used: class scale, read-out: Binding σ-2 Ki
pKi: −log10 of the molar value.
Experimental Endpoint: pKi

Please review the entries below; each comes with its answer.
Molecule: Cc1cc(-c2nn(C)c(Cl)c2C(=O)N2CCC3(CCN(CCC(C)(C)C)CC3)C2)no1
pKi: 6.30 to 7.00
--
Molecule: CC(C)c1cc(-c2nn(C)c(Cl)c2CN2CCCCC(NCCC(C)(C)C)C2)no1 (stereo not shown)
pKi: < 6.00
--
Molecule: Cc1cc(-c2nn(C)c(Cl)c2CN2CCCCC(NCCC(C)C)C2=O)no1 (stereo not shown)
pKi: < 6.00
--
Molecule: Cn1nc(-c2cccnc2)c(CN2CCCCC(NCCC(C)(C)C)C2)c1Cl (stereo not shown)
pKi: < 6.00
--
Molecule: CC(C)CCNC1CCCCN(Cc2c(-c3cccc(O)n3)nn(C)c2Cl)C1 (stereo not shown)
pKi: 6.30 to 7.00

Could you tell me which pKi is on file for `Cc1cc(-c2nn(C)c(Cl)c2C(=O)N2CCC3(CCN(CC(=O)N4CCC(F)(F)CC4)CC3)CC2)no1` ? 6.30 to 7.00

Name the reported pKi value associated with the molecule `Cc1cc(-c2nn(-c3ccccc3)c(Cl)c2C(=O)N2CCC3(CCN(CCC(C)(C)C)CC3)CC2)no1` > 7.00
